- Tested on: Klebsiella pneumoniae
- assay-comment: Synergistic antibacterial activity against Klebsiella pneumoniae 935/1884 producing KPC-3 assessed as cefepime MIC at 4 ug/ml by broth microdilution method
- Format: functional
- condition-info: dose 4 µg/ml
Listing of entries alongside the reported MIC.

Solved cases below.
Enquiry: Record lookup: for Klebsiella pneumoniae, what MIC belongs to N#C[C@@H]1CC[C@@H]2CN1C(=O)N2OS(=O)(=O)[O-].[Na+] ?
Return: 0.25 µg/mL

Enquiry: Would you kindly repeat that for NC(=O)[C@@H]1CC[C@@H]2CN1C(=O)N2OS(=O)(=O)[O-].[Na+] [AVIBACTAM SODIUM] ?
Return: ≤ 0.12 µg/mL

Enquiry: Would you kindly repeat that for O.O=C(NC1CCNCC1)[C@@H]1CC[C@@H]2CN1C(=O)N2OS(=O)(=O)O ?
Return: ≤ 0.12 µg/mL

---
Enquiry: Record lookup: for Klebsiella pneumoniae, what MIC belongs to O=C(NNC(=O)[C@@H]1CC[C@@H]2CN1C(=O)N2OS(=O)(=O)O)[C@@H]1CCCNC1 ?
Return: ≤ 0.12 µg/mL

Enquiry: Would you kindly repeat that for O=C(NNC(=O)[C@@H]1CC[C@@H]2CN1C(=O)N2OS(=O)(=O)O)[C@@H]1CCNC1 ?
Return: ≤ 0.12 µg/mL

====

Listing of entries alongside the reported MIC.
- Test system: Klebsiella pneumoniae
- assay-comment: Synergistic antibacterial activity against Klebsiella pneumoniae 440/1360 producing KPC-2 assessed as cefepime MIC at 4 ug/ml by broth microdilution method
- Format: functional
- condition-info: dose 4 µg/ml
Provide the reading as a plain figure in µg/mL.

Enquiry: MIC for O.O=C(NC1CCNCC1)[C@@H]1CC[C@@H]2CN1C(=O)N2OS(=O)(=O)O ?
Return: 1

---
Enquiry: MIC for N#C[C@@H]1CC[C@@H]2CN1C(=O)N2OS(=O)(=O)[O-].[Na+] ?
Return: 0.5

====

- Test system: Klebsiella pneumoniae
- assay-comment: Synergistic antibacterial activity against Klebsiella pneumoniae NY BS producing OXA-232 assessed as cefepime MIC at 4 ug/ml by broth microdilution method
- Type: functional
- condition-info: dose 4 µg/ml
Listing of entries alongside the reported MIC.
Provide the reading as a plain figure in µg/mL.

Solved cases below.
Enquiry: Record lookup: for Klebsiella pneumoniae, what MIC belongs to N#C[C@@H]1CC[C@@H]2CN1C(=O)N2OS(=O)(=O)[O-].[Na+] ?
Return: 0.5

Enquiry: Would you kindly repeat that for O.O=C(NC1CCNCC1)[C@@H]1CC[C@@H]2CN1C(=O)N2OS(=O)(=O)O ?
Return: 2

With those in mind, consider the next compound.
Enquiry: Record lookup: for Klebsiella pneumoniae, what MIC belongs to NC(=O)[C@@H]1CC[C@@H]2CN1C(=O)N2OS(=O)(=O)[O-].[Na+] [AVIBACTAM SODIUM] ?
Return: 0.5

====

- Test system: Acinetobacter baumannii
- assay-comment: Antibacterial activity against Acinetobacter baumannii NCTC 13301 producing OXA-23/51 infected in sc dosed Swiss albino mouse administered 1 hr post infection and measured upto 7 days
- Assay type: functional
- condition-info: NCTC 13301, 168 h, time <= 7 day
Listing of entries alongside the reported ED90.
Provide the reading as a plain figure in mg/kg.

Enquiry: ED90 for O=C(NNC(=O)[C@@H]1CC[C@@H]2CN1C(=O)N2OS(=O)(=O)O)[C@@H]1CCCNC1 [ZIDEBACTAM] ?
Return: 52.3

Enquiry: Would you kindly repeat that for N#C[C@@H]1CC[C@@H]2CN1C(=O)N2OS(=O)(=O)[O-].[Na+] ?
Return: 23.7

With those in mind, consider the next molecule.
Enquiry: ED90 for C[C@@H](O)[C@H]1C(=O)N2C(C(=O)O)=C(S[C@@H]3CN[C@H](C(=O)N(C)C)C3)[C@H](C)[C@H]12 [MEROPENEM] ?
Return: 25

====

- Tested on: Klebsiella pneumoniae
- assay-comment: Synergistic antibacterial activity against Klebsiella pneumoniae CAV 1543 producing OXA-48 assessed as meropenem MIC at 4 ug/ml by broth microdilution method
- Assay type: functional
- condition-info: dose 4 µg/ml
Listing of entries alongside the reported MIC.

Enquiry: Record lookup: for Klebsiella pneumoniae, what MIC belongs to O.O=C(NC1CCNCC1)[C@@H]1CC[C@@H]2CN1C(=O)N2OS(=O)(=O)O ?
Return: 8 µg/mL

Enquiry: Would you kindly repeat that for NC(=O)[C@@H]1CC[C@@H]2CN1C(=O)N2OS(=O)(=O)[O-].[Na+] [AVIBACTAM SODIUM] ?
Return: ≤ 0.12 µg/mL

Enquiry: Would you kindly repeat that for O=C(NNC(=O)[C@@H]1CC[C@@H]2CN1C(=O)N2OS(=O)(=O)O)[C@@H]1CCNC1 ?
Return: ≤ 0.12 µg/mL

---
Enquiry: Record lookup: for Klebsiella pneumoniae, what MIC belongs to O=C(NNC(=O)[C@@H]1CC[C@@H]2CN1C(=O)N2OS(=O)(=O)O)[C@@H]1CCCNC1 ?
Return: ≤ 0.12 µg/mL

Enquiry: Would you kindly repeat that for N#C[C@@H]1CC[C@@H]2CN1C(=O)N2OS(=O)(=O)[O-].[Na+] ?
Return: ≤ 0.12 µg/mL

====

- Test system: Klebsiella pneumoniae
- assay-comment: Synergistic antibacterial activity against Klebsiella pneumoniae 729/1679 producing KPC-3 assessed as cefepime MIC at 4 ug/ml by broth microdilution method
- Type: functional
- condition-info: dose 4 µg/ml
Listing of entries alongside the reported MIC.

Solved cases below.
Enquiry: MIC for O=C(NNC(=O)[C@@H]1CC[C@@H]2CN1C(=O)N2OS(=O)(=O)O)[C@@H]1CCNC1 ?
Return: ≤ 0.12 µg/mL

Enquiry: Would you kindly repeat that for O.O=C(NC1CCNCC1)[C@@H]1CC[C@@H]2CN1C(=O)N2OS(=O)(=O)O [RELEBACTAM] ?
Return: 0.5 µg/mL

Enquiry: Would you kindly repeat that for O=C(NNC(=O)[C@@H]1CC[C@@H]2CN1C(=O)N2OS(=O)(=O)O)[C@@H]1CCCNC1 [ZIDEBACTAM] ?
Return: ≤ 0.12 µg/mL

---
Enquiry: MIC for N#C[C@@H]1CC[C@@H]2CN1C(=O)N2OS(=O)(=O)[O-].[Na+] ?
Return: 0.5 µg/mL

Enquiry: Would you kindly repeat that for NC(=O)[C@@H]1CC[C@@H]2CN1C(=O)N2OS(=O)(=O)[O-].[Na+] [AVIBACTAM SODIUM] ?
Return: 0.25 µg/mL

====

- assay-comment: Binding affinity to bacteria KPC-2 assessed as dissociation constant
observation-type: Kd (µM)
Provide the reading as a plain figure in µM.

Enquiry: Kd for O=C(NNC(=O)[C@@H]1CC[C@@H]2CN1C(=O)N2OS(=O)(=O)O)[C@@H]1CCCNC1 ?
Return: 0.043

With those in mind, consider the next compound.
Enquiry: Kd for O=C(NNC(=O)[C@@H]1CC[C@@H]2CN1C(=O)N2OS(=O)(=O)O)[C@@H]1CCNC1 ?
Return: 0.04

====

Listing of entries alongside the reported MIC.
- Tested on: Klebsiella pneumoniae
- assay-comment: Synergistic antibacterial activity against Klebsiella pneumoniae 977/1916 producing KPC-3 assessed as cefepime MIC at 4 ug/ml by broth microdilution method
- Assay type: functional
- condition-info: dose 4 µg/ml

Solved cases below.
Enquiry: Record lookup: for Klebsiella pneumoniae, what MIC belongs to N#C[C@@H]1CC[C@@H]2CN1C(=O)N2OS(=O)(=O)[O-].[Na+] ?
Return: ≤ 0.12 µg/mL

Enquiry: Would you kindly repeat that for O=C(NNC(=O)[C@@H]1CC[C@@H]2CN1C(=O)N2OS(=O)(=O)O)[C@@H]1CCCNC1 ?
Return: ≤ 0.12 µg/mL

Enquiry: Would you kindly repeat that for O.O=C(NC1CCNCC1)[C@@H]1CC[C@@H]2CN1C(=O)N2OS(=O)(=O)O ?
Return: 0.25 µg/mL

---
Enquiry: Record lookup: for Klebsiella pneumoniae, what MIC belongs to NC(=O)[C@@H]1CC[C@@H]2CN1C(=O)N2OS(=O)(=O)[O-].[Na+] [AVIBACTAM SODIUM] ?
Return: ≤ 0.12 µg/mL

Enquiry: Would you kindly repeat that for O=C(NNC(=O)[C@@H]1CC[C@@H]2CN1C(=O)N2OS(=O)(=O)O)[C@@H]1CCNC1 ?
Return: ≤ 0.12 µg/mL

====

Listing of entries alongside the reported MIC.
- System: Acinetobacter baumannii
- assay-comment: Synergistic antibacterial activity against Acinetobacter baumannii PR363 producing OXA-23 assessed as cefepime MIC at 4 ug/ml by broth microdilution method
- Type: functional
- condition-info: dose 4 µg/ml
Provide the reading as a plain figure in µg/mL.

Solved cases below.
Enquiry: MIC for O=C(NNC(=O)[C@@H]1CC[C@@H]2CN1C(=O)N2OS(=O)(=O)O)[C@@H]1CCNC1 ?
Return: 8

Enquiry: Would you kindly repeat that for O=C(NNC(=O)[C@@H]1CC[C@@H]2CN1C(=O)N2OS(=O)(=O)O)[C@@H]1CCCNC1 ?
Return: 8

Enquiry: Would you kindly repeat that for N#C[C@@H]1CC[C@@H]2CN1C(=O)N2OS(=O)(=O)[O-].[Na+] ?
Return: 8

With those in mind, consider the next compound.
Enquiry: MIC for O.O=C(NC1CCNCC1)[C@@H]1CC[C@@H]2CN1C(=O)N2OS(=O)(=O)O ?
Return: 16
